- Test system: death induced by pulmonary infarction in mice
- ASSAY PROCEDURE: Antithrombotic activity: inhibition of death by collagen-induced pulmonary infarction in mice
- Type: in vivo, male ICR mice
- CONDITIONS: Mus musculus, 1 h; 30 mg/kg oral, 10 minutes before i.v. collagen; lethality in an hour; read-out: Pulmonary infarction inhibitory activity
Mark MET for reported inhibition in vivo at 30 mg/kg of 80% or greater; mark NOT MET for anything smaller.

Before answering, review these 5 worked examples.
>  <MOLECULE>
O=C(NCCCOc1ccc2[nH]c(=O)ccc2c1)N(C1CCCCCC1)[C@@H]1CCCC[C@H]1O (relative stereo)

>  <DISCRETE LABEL>
NOT MET

$$$$
>  <MOLECULE>
C=CCN(CCCOc1ccc2[nH]c(=O)ccc2c1)C(=O)N(C)C1CCCCC1

>  <DISCRETE LABEL>
NOT MET

$$$$
>  <MOLECULE>
CC(=O)O[C@@H]1CCCC[C@H]1N(C(=O)NCCCOc1ccc2[nH]c(=O)ccc2c1)C1CC1 (relative stereo)

>  <DISCRETE LABEL>
NOT MET

$$$$
>  <MOLECULE>
O=C(NCCCOc1ccc2[nH]c(=O)ccc2c1)N(C1CCCCCCC1)[C@@H]1CCCC[C@H]1O (relative stereo)

>  <DISCRETE LABEL>
MET

$$$$
>  <MOLECULE>
O=C(NCCCCOc1ccc2[nH]c(=O)ccc2c1)N(C1CC1)[C@@H]1CCCC[C@H]1O

>  <DISCRETE LABEL>
NOT MET

$$$$

Assess whether reported inhibition in vivo at 30 mg/kg for O=C1CCc2cc(OCCCNC(=O)N(C3CC3)[C@@H]3CCCC[C@H]3O)cc(F)c2N1 (relative stereo) sits at 80% or higher.
MET

Can CN(NC(=O)NCCCOc1ccc2[nH]c(=O)ccc2c1)C1CCCCC1 be said to have inhibition in vivo at 30 mg/kg at or above 80%?
MET

Could you verify whether the entry CCOC(CC)CN(C(=O)NCCCOc1ccc2[nH]c(=O)ccc2c1)C1CCCCC1 (stereo not shown) shows inhibition in vivo at 30 mg/kg of no less than 80%?
MET

// inclusive: inhibition in vivo at 30 mg/kg at least 80%? input: CCCN(CCCOc1ccc2[nH]c(=O)ccc2c1)C(=O)N(C)C1CCCCC1
MET

Decide: is the reported value of inhibition in vivo at 30 mg/kg for O=C(NCCCOc1ccc2[nH]c(=O)ccc2c1)N(C1CC1)[C@@H]1CCCC[C@H]1O (relative stereo) [Ex. 6] equal to or greater than 80%?
MET

# bool: inhibition in vivo at 30 mg/kg of O=C(NCCCOc1ccc2nc(O)ccc2c1)N(C1CC1)[C@H]1CCCC[C@@H]1O >= 80%
MET

Does CCC(CN(C(=O)N(C)CCCOc1ccc2[nH]c(=O)ccc2c1)C1CCCCC1)OC(C)=O (stereo not shown) have a reported inhibition in vivo at 30 mg/kg of at least 80%?
NOT MET

State whether the measured inhibition in vivo at 30 mg/kg reaches 80%, counting equality as reaching it, for CCC(O)CN(C(=O)N(C)CCCOc1ccc2[nH]c(=O)ccc2c1)C1CCCCC1 (stereo not shown)
NOT MET

These data points were gathered from patent US6143763A.
